targetOfAssay: Protein kinase C (PKC) (Homo sapiens) (UniProt O94806+P41743+P17252+P05129+Q05655+P05771+Q05513+Q02156+P24723+Q15139+Q04759)
testSummary: Retained protein kinase C activity in the presence of 40 uM compound
Type: functional
quantityKind: Activity (%)

Reference set, count: 5
CCCCCCCCCCCCCCCCC[C@@H]1OC[C@@H](C[N+](C)(C)CCCO)O1	19
CCCCCCCCCCCCCCCCSCC(C[N+](C)(C)C)OC (stereo not drawn)	29
CCCCCCCCCCCCCCCCSCC(C[N+](C)(C)CCO)OCC (stereo not drawn)	47
CC1(C)OC[C@@H](C[N+](C)(C)CCO)O1	87
CCCCCCCCCCCCCCCCOCC(COCC[N+](C)(C)C)OC (stereo not drawn)	43

(a) CCCCCCCCCCCCCCCCSCC(C[N+](C)(C)CCO)OC (stereo not drawn)
(b) CCCCCCCCCCCCCCCCCC1OCC(C[N+](C)(C)CCCO)O1 (stereo not drawn)
(c) CCCCCCCCCCCCCCCCCCSCC(C[N+](C)(C)CCCO)OC (stereo not drawn)
(d) COC(COc1cccc2ccccc12)C[N+](C)(C)CCO (stereo not drawn)
Thanks in advance: please rank these 4 entries by Activity, highest to lowest. Sort the labels as requested; that list is your answer.
d, a, c, b
(d: 90%, a: 42%, c: 23%, b: 12%)

* * *

targetOfAssay: Protein kinase C (PKC) (Homo sapiens) (UniProt O94806+P41743+P17252+P05129+Q05655+P05771+Q05513+Q02156+P24723+Q15139+Q04759)
testSummary: Retained protein kinase C activity in the presence 2.5 uM compound
Type: functional
quantityKind: Activity (%)

CCCCCCCCCCCCCCCCC[C@@H]1OC[C@@H](C[N+](C)(C)CCCO)O1	90
CCCCCCCCCCCCCCCCSCC(C[N+](C)(C)CCO)OC (stereo unspecified)	90

(1) CCCCCCCCCCCCCCCCOCC(C[N+](C)(C)CCO)OC (stereo unspecified)
(2) CCCCCCCCCCCCCCCCCCSCC(C[N+](C)(C)CCCO)OC (stereo unspecified)
Look at 1 and 2 . Which one has the lower recorded Activity number? Please respond with the label that marks your chosen entry.
2

* * *

targetOfAssay: Protein kinase C (PKC) (Homo sapiens) (UniProt O94806+P41743+P17252+P05129+Q05655+P05771+Q05513+Q02156+P24723+Q15139+Q04759)
testSummary: Retained protein kinase C activity in the presence 2.5 uM compound
Type: functional
quantityKind: Activity (%)

CCCCCCCCCCCCCCCCCCOCC(COP(=O)([O-])OCC[N+](C)(C)C)OC (configuration not stated)	93
CC1(C)OC[C@@H](C[N+](C)(C)CCO)O1	84
CCCCCCCCCCCCCCCCOCC(COCCO)OC (configuration not stated)	86
CCCCCCCCCCCCCCCCOCC(COCC[N+](C)(C)C)OC (configuration not stated)	91
CCCCCCCCCCCCCCCCCC1OCC(C[N+](C)(C)CCCO)O1 (configuration not stated)	99

(a) COC(COc1cccc2ccccc12)C[N+](C)(C)CCO (configuration not stated)
(b) CCCCCCCCCCCCCCCCSCC(C[N+](C)(C)CCCO)OCC (configuration not stated)
When the recorded Activity values are compared, which is smaller: that of a or that of b ? Pick one and reply with its label.
b
(b: 64%, a: 99%)
